parameter.measured: melting point (°C)

# example entries with known answers
1) COc1ccc(-c2[nH]c3ccc(OCc4ccccc4)cc3c2C)cc1 | 158
2) Cc1ccc(-c2nccc3c(CO)cccc23)cc1 | 195

a. COc1ccc(-c2[nH]nc3c2C(=O)c2c(NC(=O)NNC(=O)c4cccc(N)c4)cccc2-3)cc1
b. CC(=O)Nc1ccc(OC(F)(F)F)cc1-c1ccccc1
Between these two entries, a and b , state which has the higher melting point. Kindly give the label for the entry you pick.
a
(a: 250 °C, b: 94 °C)

====

parameter.measured: melting point

# example entries with known answers
1. Cc1cc(-c2[nH]c3ccc(N)cc3c2C)cc(C)c1O | 184 to 185 °C
2. CC(C)NC(=O)[C@H](C)C[C@H](O)[C@H](CC1CCCCC1)NC(=O)[C@H](Cc1cscn1)NC(=O)OC(C)(C)C | 185 to 187 °C
3. CCCc1nc(NC(=N)N)sc1-c1cccc([N+](=O)[O-])c1 | 137 to 139 °C

May I ask what melting point has been recorded for `Cc1cc(C=NO)cc(Oc2nc(Cl)nc(Cl)c2C(C)C)c1` ?
185 to 187 °C

Similarly, `CCC(=O)N1C(=O)OC(C)(C)[C@@H]1Cc1ccccc1` ?
61 °C

Similarly, CCOC(=O)C1(CC(=O)O)N=C(c2ccc(Cl)cc2)c2c(sc(C)c2C)-n2c(C)nnc21 (centres undefined) ?
198 to 202 °C

Similarly, CC1C(=O)N(c2ccc(O)cc2)C(=S)N1c1ccc(Oc2ccccc2)cc1 (centres undefined) ?
202 to 204 °C

Similarly, `CCn1ccnc1CNC(=O)c1[nH]c2ccc(Cl)cc2c1S(=O)(=O)c1ccccc1` ?
204 to 206 °C

Similarly, `Cn1ncnc1COc1nn2c(-c3cnccn3)nncc2c1-c1ccccc1F` ?
179 to 180 °C

Similarly, `COc1cc(OC)c(C(=O)CCl)cc1C` ?
166 to 167 °C

Similarly, `CS(=O)(=O)N1CCCn2c(nc3c(N)nc4c(c32)CCCC4)C1` ?
270 to 272 °C

Similarly, CCC(O)C#Cc1ncn2c1CN(C)C(=O)c1c(Cl)cccc1-2 (centres undefined) ?
178 °C

Similarly, `O=C(CCC1CCCC1)Nc1ccc(NC(=O)CCC2CCCC2)c2c1C(=O)c1ccccc1C2=O` ?
166 to 167 °C

Similarly, `O=C(c1cc(C(F)(F)F)cc(C(F)(F)F)c1)N1CCC2(CC1)C(=O)NCN2c1cccc(Cl)c1` ?
235 to 236 °C

Similarly, O=C1N(Cc2ccc(Cl)cc2)c2ccccc2C1(O)c1ccoc1 (centres undefined) ?
128 to 130 °C

Similarly, `O=C(NC(=O)C(c1ccccc1)c1ccccc1)C1CC1` ?
178 °C

====

parameter.measured: melting point

# example entries with known answers
1. COc1cc2ncc(C#N)c(Nc3ccc4[nH]c(C)nc4c3)c2cc1OC | 207 °C
2. Cc1cc(N)c(S(N)(=O)=O)cc1-c1ccccn1 | 229 to 231 °C
3. O=C1c2c(Cl)cccc2-n2cnc(-c3nc(CN4CCCC4)cs3)c2[C@@H]2CCCN12 | 213 to 214 °C
4. COCc1c(C(=O)NN)ncc2[nH]c3cccc(OCc4ccccc4)c3c12 | 212 to 213 °C
5. CCOCc1nc2c(N)nc3cc(Br)cnc3c2n1CCCON=C(C)C | 128 to 130 °C
6. COc1ccc(-c2c(CCN3CCN(c4cc(C)ccn4)CC3)c3cccc4c3n2CCC4)cc1 | 120 °C
7. FC(F)(F)c1cc(CO[C@H]2CCCN(Cc3ccccc3)[C@H]2c2ccccc2)cc(C(F)(F)F)c1 | 89 to 93 °C
8. CC(C)(C)c1cc(-c2nnc(S(C)(=O)=O)s2)cc(C(C)(C)C)c1O | 156 °C

May I ask what melting point has been recorded for `CC(=O)NC1(c2ccc(Cl)c(C(F)(F)F)c2)CCN(Cc2ccccc2)CC1` ?
198 to 199 °C

Similarly, COC(=O)c1cn(-c2ccc(C3=NOC(NC(C)=O)C3)cc2F)nn1 (centres undefined) ?
221 °C

Similarly, `COc1ccc(CN(C)CCc2ccc(NC(=O)c3cccc4c(=O)c5c(OC)c(OC)c(OC)cc5[nH]c34)cc2)cc1OC` ?
158 °C

Similarly, `CCOC(=O)C(=C1SC(=S)N(CC(=O)O)C1=O)c1csc(NC(=S)NC(=O)c2ccccc2)n1` ?
233 to 235 °C

Similarly, `COC(=O)C=Cc1ccc(OC)c(OC)c1` ?
72 to 74 °C

Similarly, CC(=O)OC1CCC2(C)C(=CCC3C4CC(OC(C)=O)C(=O)C4(C)CCC32)C1 (centres undefined) ?
173 to 174 °C

Similarly, COc1ccc(C2(COc3cccc4cc(NS(=O)(=O)C(F)(F)F)ccc34)N=CNO2)cc1 (centres undefined) ?
146 to 148 °C
